src = patent EP0183129A1

Measured concentration at 0.5 h of individual entries
assay: Absorption and distribution: concentration in blood and organs after oral administration, bioassay by cup method; type: in vivo; conditions: rat; rats, fasted, 10 mg/kg oral, serum, 1/2 hr after administration; Mean ± S.D. (n=5); read-out: Concentration in organs: Serum
Counter-ions that a name gives are not always drawn.
endpoint: concentration at 0.5 h (ng/mL)

{"compound": "CCNCC1CCN(c2c(F)cc3c(=O)c(C(=O)O)cn(C4CC4)c3c2Cl)C1 (centres unmarked)", "unit_label": "ng/mL", "measurement": 1720}
{"compound": "CCNCC1CCN(c2c(F)cc3c(=O)c(C(=O)O)cn(C4CC4)c3c2F)C1 (centres unmarked) [Example 2, hydrochloride]", "unit_label": "ng/mL", "measurement": 1470}

###

system: P. aeruginosa IID 1210; test: In vitro antibacterial activity, MIC (standard strain); format: cell-based; settings: Pseudomonas aeruginosa, IID1210; P. aeruginosa IID 1210; 10^6 cells/ml; standard strain; read-out: MIC
Counter-ions that a name gives are not always drawn.
MIC values by entry
endpoint: MIC

{"compound": "CCNCC1CCN(c2c(F)cc3c(=O)c(C(=O)O)cn(C4CC4)c3c2F)C1 (centres unmarked) [Example 2, hydrochloride]", "endpoint": "MIC", "measurement": "3.13 µg/mL"}
{"compound": "CNCC1CCN(c2c(F)cc3c(=O)c(C(=O)O)cn(C4CC4)c3c2Br)C1 (centres unmarked) [Example 16]", "endpoint": "MIC", "measurement": "1.56 µg/mL"}
{"compound": "CCn1cc(C(=O)O)c(=O)c2cc(F)c(N3CCNCC3)cc21 [NFLX, Norfloxacin, reference compound]", "endpoint": "MIC", "measurement": "3.13 µg/mL"}
{"compound": "CN(C)CC1CCN(c2c(F)cc3c(=O)c(C(=O)O)cn(C4CC4)c3c2F)C1 (centres unmarked) [Example 21]", "endpoint": "MIC", "measurement": "3.13 µg/mL"}
{"compound": "CN(C)CC1CCN(c2c(F)cc3c(=O)c(C(=O)O)cn(C4CC4)c3c2Cl)C1 (centres unmarked) [Example 20]", "endpoint": "MIC", "measurement": "1.56 µg/mL"}
{"compound": "CNCC1CCN(c2c(F)cc3c(=O)c(C(=O)O)cn(C4CC4)c3c2Cl)C1 (centres unmarked) [Example 12, hydrochloride]", "endpoint": "MIC", "measurement": "1.56 µg/mL"}
{"compound": "CCNCC1CCN(c2c(F)cc3c(=O)c(C(=O)O)cn(C4CC4)c3c2Cl)C1 (centres unmarked) [Example 13]", "endpoint": "MIC", "measurement": "1.56 µg/mL"}
{"compound": "CCCNCC1CCN(c2c(F)cc3c(=O)c(C(=O)O)cn(C4CC4)c3c2F)C1 (centres unmarked) [Example 10, hydrochloride]", "endpoint": "MIC", "measurement": "3.13 µg/mL"}

###

system: S. pneumoniae S-4288; test: In vivo antibacterial activity against systemic infection in mice; set-up: species or system mice (ICR-S); details: Streptococcus pneumoniae, S4288; mice (ICR-S); oral, an hour after intraperitoneal infection; challenge dose 7.5 x 10^4 ~ 4.8 x 10^6 cfu/mouse; read-out: ED50 S. pneumoniae S-4288
Structures can show the parent of a compound that is named as a salt.
endpoint: log10(ED50) (log10 of the value in mg/kg)

{"molecule": "NCC1CCN(c2c(F)cc3c(=O)c(C(=O)O)cn(C4CC4)c3c2Cl)C1 (stereo not shown) [Example 14, hydrochloride]", "log10(ED50)": 1.00}
{"molecule": "NCC1CCN(c2c(F)cc3c(=O)c(C(=O)O)cn(C4CC4)c3c2F)C1 (stereo not shown)", "log10(ED50)": 1.14}
{"molecule": "CNCC1CCN(c2c(F)cc3c(=O)c(C(=O)O)cn(C4CC4)c3c2F)C1 (stereo not shown) [Example 8, hydrochloride]", "log10(ED50)": 1.21}
{"molecule": "CCNCC1CCN(c2c(F)cc3c(=O)c(C(=O)O)cn(C4CC4)c3c2F)C1 (stereo not shown) [Example 2, hydrochloride]", "log10(ED50)": 0.66}
{"molecule": "CCNCC1CCN(c2c(F)cc3c(=O)c(C(=O)O)cn(C4CC4)c3c2Cl)C1 (stereo not shown)", "log10(ED50)": 0.30}
{"molecule": "CCNCC1CCN(c2c(F)cc3c(=O)c(C(=O)O)cn(CC)c3c2F)C1 (stereo not shown) [Ref.1, reference compound]", "log10(ED50)": 1.79}
{"molecule": "CNCC1CCN(c2c(F)cc3c(=O)c(C(=O)O)cn(C4CC4)c3c2Cl)C1 (stereo not shown) [Example 12, hydrochloride]", "log10(ED50)": 0.81}

###

assay: Absorption and distribution: concentration in blood and organs after oral administration, bioassay by cup method; format: in vivo; conditions: rat; rats, fasted, 10 mg/kg oral, liver, 6 hr after administration; Mean ± S.D. (n=5); read-out: Concentration in organs: Liver
Counter-ions that a name gives are not always drawn.
Recorded concentration at 6 h by entry
endpoint: concentration at 6 h (ng/g)

{"compound": "CCNCC1CCN(c2c(F)cc3c(=O)c(C(=O)O)cn(C4CC4)c3c2Cl)C1 (centres unmarked) [Example 13]", "measurement": 860}
{"compound": "CCNCC1CCN(c2c(F)cc3c(=O)c(C(=O)O)cn(C4CC4)c3c2F)C1 (centres unmarked) [Example 2, hydrochloride]", "measurement": 1620}

###

tested on: Staphylococcus aureus 209 P; experiment: In vitro antibacterial activity, MIC (standard strain); assay type: cell-based; conditions: Staphylococcus aureus, 209P
Where a name gives a salt, the structure may show the parent alone.

{"molecule": "NCC1CCN(c2c(F)cc3c(=O)c(C(=O)O)cn(C4CC4)c3c2Br)C1 (stereo not shown)", "study_system": "Staphylococcus aureus 209 P", "MIC / µg/mL": 0.0125}
{"molecule": "O=C(O)c1cn(C2CC2)c2cc(N3CCNCC3)c(F)cc2c1=O [CFLX, Ciprofloxacin, reference compound]", "study_system": "Staphylococcus aureus 209 P", "MIC / µg/mL": 0.2}
{"molecule": "NCC1CCN(c2cc3c(cc2F)c(=O)c(C(=O)O)cn3C2CC2)C1 (stereo not shown)", "study_system": "Staphylococcus aureus 209 P", "MIC / µg/mL": 0.05}
{"molecule": "NCC1CCN(c2c(F)cc3c(=O)c(C(=O)O)cn(C4CC4)c3c2Cl)C1 (stereo not shown) [Example 14, hydrochloride]", "study_system": "Staphylococcus aureus 209 P", "MIC / µg/mL": 0.0125}

###

system: Morganella morganii IID 602; experiment: In vitro antibacterial activity, MIC (standard strain); assay type: cell-based; conditions: IID602; Morganella morganii IID 602; 10^6 cells/ml; standard strain; read-out: MIC
Counter-ions that a name gives are not always drawn.
Known log10 of MIC of a selection of compounds
endpoint: log10 of MIC (log10 of the value in µg/mL)

{"compound": "O=C(O)c1cn(C2CC2)c2cc(N3CCNCC3)c(F)cc2c1=O [CFLX, Ciprofloxacin, reference compound]", "measurement": -1.30}
{"compound": "CCCNCC1CCN(c2c(F)cc3c(=O)c(C(=O)O)cn(C4CC4)c3c2F)C1 (stereo not drawn) [Example 10, hydrochloride]", "measurement": -1.60}
{"compound": "NCC1CCN(c2c(F)cc3c(=O)c(C(=O)O)cn(C4CC4)c3c2F)C1 (stereo not drawn) [Example 1, hydrochloride]", "measurement": -1.00}
{"compound": "CCNCC1CCN(c2c(F)cc3c(=O)c(C(=O)O)cn(C4CC4)c3c2Br)C1 (stereo not drawn) [Example 17]", "measurement": -0.70}
{"compound": "CNCC1CCN(c2c(F)cc3c(=O)c(C(=O)O)cn(C4CC4)c3c2F)C1 (stereo not drawn) [Example 8, hydrochloride]", "measurement": -0.70}
{"compound": "CNCC1CCN(c2c(F)cc3c(=O)c(C(=O)O)cn(C4CC4)c3c2Cl)C1 (stereo not drawn) [Example 12, hydrochloride]", "measurement": -1.00}
{"compound": "NCC1CCN(c2c(F)cc3c(=O)c(C(=O)O)cn(C4CC4)c3c2Cl)C1 (stereo not drawn) [Example 14, hydrochloride]", "measurement": -1.30}
{"compound": "CCNCC1CCN(c2c(F)cc3c(=O)c(C(=O)O)cn(C4CC4)c3c2F)C1 (stereo not drawn) [Example 2, hydrochloride]", "measurement": -1.00}
{"compound": "CCNCC1CCN(c2cc3c(cc2F)c(=O)c(C(=O)O)cn3C2CC2)C1.Cl (stereo not drawn) [Example 7]", "measurement": -0.41}
{"compound": "NCC1CCN(c2c(F)cc3c(=O)c(C(=O)O)cn(C4CC4)c3c2Br)C1 (stereo not drawn) [Example 15]", "measurement": -1.00}
{"compound": "CCNCC1CCN(c2c(F)cc3c(=O)c(C(=O)O)cn(CC)c3c2F)C1 (stereo not drawn) [Ref.1, reference compound]", "measurement": -0.11}
{"compound": "CNCC1CCN(c2cc3c(cc2F)c(=O)c(C(=O)O)cn3C2CC2)C1 (stereo not drawn) [Example 9, hydrochloride]", "measurement": -0.11}
{"compound": "CNCC1CCN(c2c(F)cc3c(=O)c(C(=O)O)cn(C4CC4)c3c2Br)C1 (stereo not drawn) [Example 16]", "measurement": -1.00}
{"compound": "CCn1cc(C(=O)O)c(=O)c2cc(F)c(N3CCNCC3)cc21 [NFLX, Norfloxacin, reference compound]", "measurement": -1.30}
{"compound": "CCNCC1CCN(c2c(F)cc3c(=O)c(C(=O)O)cn(C4CC4)c3c2Cl)C1 (stereo not drawn) [Example 13]", "measurement": -1.00}
{"compound": "CN(C)CC1CCN(c2c(F)cc3c(=O)c(C(=O)O)cn(C4CC4)c3c2F)C1 (stereo not drawn) [Example 21]", "measurement": -0.70}
{"compound": "CN(C)CC1CCN(c2c(F)cc3c(=O)c(C(=O)O)cn(C4CC4)c3c2Cl)C1 (stereo not drawn) [Example 20]", "measurement": -0.70}
{"compound": "CC(C)NCC1CCN(c2c(F)cc3c(=O)c(C(=O)O)cn(C4CC4)c3c2F)C1.Cl (stereo not drawn) [Example 11]", "measurement": -0.41}
